experiment: soluble on expression in E. coli; label from the status in PepcDB or PDB records
Measurement Kind: soluble on expression in E. coli

| Construct Sequence | Result |
| --- | --- |
| MNYGNNGGGQWQPRGNNNWRPQGRGRGGGGWKGNDNRGGYRGGSSNDGGWSNFRDDGNLNFASPYQANRGNFRGNYRGGGGGGGGNQNNYGNRGRGRGGFDRGRGGGGGGNKNFGPIDANKCIIPSMWNNPWDALEKEYEQEYGVAITEKVTDPSPSPSSAEETTA | not soluble |
| MKINWTEVKEKIRPQISKPSYETWFTNTTVYLEDDILTIYCPNEFARDWLESHYKELVFNTLREMFNTTFEIQFDLCNGEPSNLKDVQKEKLSSWDEVKKALRPKIAEKTFMTWIRNTNATIKDNKVIIFCEDAFHRDLLEGEYKNIISSTVQKITDEEYQIWFEIESSATSNAQVHHVKNNQRTSGQEESKTIWNKIKDKIQLKISRPSYETWVKETTARINEDSLIIYFENEFQQEWVKKSYKDLISQIAKELTGNTYEIQFELKSNTTSNNEKSTIKDITSELGEQFKVSNNSLKYNDVDESNKRIRALEEKIMNLEKVIGTLVEKLDAVELKTQLEKLEHHHHHH | not soluble |

###

test: soluble on expression in E. coli; label from the status in PepcDB or PDB records
Measurement Kind: soluble on expression in E. coli

Reference set (4 entries):
| Construct Sequence | soluble on expression in E. coli |
| --- | --- |
| MHHHHHHSSGRENLYFQGTYNISVVGLSGTEKEKGQCGIGKSCLCNRFVRPSADEFHLDHTSVLSTSDFGGRVVNNDHFLYWGEVSRSLEDCVECKMHIVEQTEFIDDQTFQPHRSTALQPYIKRAAATKLASAEKLMYFCTDQLGLEQDFEQKQMPDGKLLVDGFLLGIDVSRGMNRNFDDQLKFVSNLYNQLAKTKKPIVVVLTKCDEGVERYIRDAHTFALSKKNLQVVETSARSNVNVDLAFSTLVQLIDK | soluble |
| MLPLPTWTLSDVDAILVLSFGGPEGQQDVIPFLENVTRGRGIPRERLEEVAVHYRHFGGISPLNALNREIIGNIIEVLSSRGLEIPVYFGNRNWHPFVNDTAEKMVRDGVRNVAVFATSAWGGYSGCRQYDEDIVRMNHHLEEKELPTLNCLKLRQFFDHPLFIEEMSSVVFQAARELGISALDELQLHQKVVFTAHSIPEVANENSGRKEDGPLYSRQVYEAASLVAKHLGISQERYDVVWQSASGNGQIPWLEPDILDYAKCQHDEGVSELVVAPIGFISDHMEVVWDLDHELQDLASDLGMSISRAATVGHTDSFATMIVELVEESLGVKPHQNLGTVPSKGCSFNGEPCEVNCCKPVQRPHSAKA | not soluble |
| MAHHHHHHMPEPLEETFSRVLSAKVARAKRVFGGDINETYRLEMEKDDVVYFLKLQRGTTADFYAAESLGLSLLSDVARTPRVVQTGEVNGDAYLIMTWIQSFPSAMRGGVRRNMAELGRMVAIVHRQTSPNGQFGSSVAVPLAGCKTSAGWSKDWATYYIESLLAPQVALARRKGYWSDRREAMFVAFSKRFCAFYASKKNVQPSLLHGDLWGGNVMYGESGEPYLIDPSSYYGHREVDIAMTRLFGGFGSEFYTAYEGEMPLEAGHASRVPWYQLLPLLCHLNLFGEAYGSSVDSAMAHVL | not soluble |
| MAHHHHHHMHLKECPPASSVGWLRPSLTIYMFGSKSLALSSAVFVLDCFTMGRKQRLLSAVVNVPLTLRLMLYFSASYKGEEPRLPPSTCVLGSSQGNNFLLLPGAFAESGCTTFFPGREGLMSELQDELWLQLPSRLLILARLDLANFLFAVVGRLPNSGINLFQQRPPSSLAVLPKRCMGMTLVALTTL | not soluble |

Quick one: soluble on expression in E. coli of MGSSHHHHHHSSGRENLYFQGSPVEKYNFKAEVNKVMDIIVNSLYTDKDVFLRELISNASDACDKKRIILENNKLIKDAEVVTNEEIKNETEKEKTENVNESTDKKENVEEEKNDIKKLIIKIKPDKEKKTLTITDNGIGMDKSELINNLGTIAQSGTAKFLKQIEEGKADSNLIGQFGVGFYSSFLVSNRVEVYTKKEDQIYRWSSDLKGSFSVNEIKKYDQEYDDIKGSGTKIILHLKEECDEYLEDYKLKELIKKYSEFIKFPIEIWSE ? soluble

###

experiment: soluble on expression in E. coli; label from the status in PepcDB or PDB records
Measurement Kind: soluble on expression in E. coli

Reference set (4 entries):
| Construct Sequence | Measurement Kind | Result |
| --- | --- | --- |
| LTGPQLAVVGSRQPSPYALRAMRRLLPQVVRQQVCLVSGLAQGVDTLAHQAALAHRGKTIAVIGTGLDHCYPAGNRDLMTELAHHHLVISEYPWGTAGARHHFPERNRIIAGLSQSTLVVEAARHSGSLITANIALQENRNVLAVPGSLDNPNSVGTNELILAGAKPILNSEHIIEEVLVDKRL | soluble on expression in E. coli | not soluble |
| PMDDIVRIHASSGTTGKPTVVGYTRKDIEIWSELMARSFAAAGVHKGDIIHNAYGYGLFTGGLGAHYGAERLGASVIPMSGGNTKKQIMIMKDFGSTVLTCTPSYSLFMAEAAREEGVDFRQLKLHVGIFGAEPWSESMRAEIEQKLNLCAIDIYGLSEIMGPGVAIECREAKKGLHI | soluble on expression in E. coli | not soluble |
| MITFTANIDGSQANAGTGTGSLGMGVANILFDDLSNEFSWDISWSGLTGNVTAAHFHGPALLNQNAGVQVAISTLSNPTSGSDTINTAQAADLLAGLWYINIHTDTSPSGEIRGQVQVASVPEPGTLSLLLLSMIGVFYSRSKILLEHHHHHH | soluble on expression in E. coli | not soluble |
| MASFARRAMSLAQIPSARISSGAASIGQRRCLAGAADHHGSTKVDFWKQPTNPGNWKEEHFVLISLSGWGLLFYSGYKLATGGKKEYTMSFIVTRKTFYGETSHSHALCFPF | soluble on expression in E. coli | not soluble |

Quick one: soluble on expression in E. coli of MSEIKLNYHKTHFLTSAPNIRSIPEDTGIEIAFAGRSNAGKSTALNALTNQKNLARTSKTPGRTQLINLFEVEPNCKLVDLPGYGYAAVPEQMKIQWQKSLGEYLQKRECLAGLVVLMDIRHPLKDLDQQMIEWAVSANLPVLLLLTKADKLSQSARSKQVKMVREAILPFQGDIQVEAFSAQNKIGIDKLAVKLDFWFSPLFAE ? not soluble

Quick one: soluble on expression in E. coli of ASNIYKIKEENKNEDICFIAGIGDTNGYGWGIAKELSKRNVKIIFGIWPPVYNIFMKNYKNGKFDNDMIIDKDKKMNILDMLPFDASFDTANDIDEETKNNKRYNMLQNYTIEDVANLIHQKYGKINMLVHSLANAKEVQKDLLNTSRKGYLDALSKSSYSLISLCKYFVNIMKPQSSIISLTYHASQKVVPGYGGGMSSAKAALESDTRVLAYHLGRNYNIRINTISAGPLKSRAATAINKLNNTYENNTNQNKNRNSHDVHNIMNNSGEKEEKKNSASQNYTFIDYAIEYSEKYAPLRQKLLSTDIGSVASFLLSRESRAITGQTIYVDNGLNIMFLPDDIYRNENE ? soluble

Quick one: soluble on expression in E. coli of AKITKVQVGEALVGDGNEVAHIDLIIGPRGSPAETAFCNGLVNNKHGFTSLLAVIAPNLPCKPNTLMFNKVTINDARQAVQMFGPAQHGVAMAVQDAVAEGIIPADEADDLYVLVGVFIHWEAADDAKIQKYNYEATKLSIQRAVNGEPKASVVTEQRKSATHPFAANA ? soluble

###

experiment: soluble on expression in E. coli; label from the status in PepcDB or PDB records

| Construct Sequence | soluble on expression in E. coli |
| --- | --- |
| GHMNMSQSQEIVLQPRSIVVPGELLAEGEFQIPWSPYILKINSKYYSTVVGLFDVKDTQFEVIPLEGSFYYPKINDIVIGLVEDVEIYGWVVDIKAPYKAYLPASNLLGRSINVGEDLRRYLDVGDYVIARIENFDRSIDPVLSVKGKDLGRVSNGIVIDIMPVKVPRVIGKNKSMYETLTSKSGCSIFVANNGRIWATCPSRFSEEILIEAIRKIENESHIKGLTDRIKQFIEEKLGERNASSGETKTNS | soluble |
| GPGSMPKEPILHAELREWLEEYRRHRAFNPIAWIEEKCTKLNEYMRNNKLRGCVTNVSGGVDSAVVLSLCSRAQRMEGSPIVRNVGICQPICSSAWALERGRENIRAAGAEEVVVDQTDIHRQLSLSVEAAVGIDGKDFARGQLRSYMRAPVGYYVAQLCSQSGTPTIVMGTGNMDEDGYLGYFCKAGDGVVDVQLISDLHKSEVFKVARELGVPENTLQAAPSADLWDGQTDEEELGFPYDFVELYTGYFLKLNNGEREMKKKSLSAEARHQFEAYMKSCEETHCRNAHKLNGIVNL | soluble |
